Please respond with reported IC50 for every item in the list.
# TESTED_SYSTEM: BmDHFR (Brugia malayi, UniProt A0A4E9FIQ4)
# ASSAY_OVERVIEW: biochemical
# Format: biochemical
# ASSAY_CONTEXT: IC50 against BmDHFR Trial 3, individual trial
Please append the unit to your numeric answer.

Prompt: What is its IC50 for BmDHFR (Brugia malayi, UniProt A0A4E9FIQ4)? Entry: COc1cc(Cc2cnc(N)nc2N)cc(OC)c1OC
Completion: 48.9 µM

Prompt: // fetch BmDHFR (Brugia malayi, UniProt A0A4E9FIQ4) IC50 for Nc1nc(N)c2nc(CNc3ccc(C(=O)N[C@@H](CCC(=O)O)C(=O)O)cc3)cnc2n1
Completion: 0.00784 µM
